Reported values of % Injury from V8 2,4-D for individual entries
test system: F1 hybrid maize plants; assay: efficacy field trial with segregating F1 hybrid plants; format: in vivo; details: CTP A; 2,4-D amine 2× at VE-V2 (plus quizalofop-P 0.5×), V4, V8
Record the value in %, omitting the unit from your answer.

molecule	meas.value
MON-HT1: engineered oxygenase protein, amino acid sequence SEQ ID NO:14 (protein) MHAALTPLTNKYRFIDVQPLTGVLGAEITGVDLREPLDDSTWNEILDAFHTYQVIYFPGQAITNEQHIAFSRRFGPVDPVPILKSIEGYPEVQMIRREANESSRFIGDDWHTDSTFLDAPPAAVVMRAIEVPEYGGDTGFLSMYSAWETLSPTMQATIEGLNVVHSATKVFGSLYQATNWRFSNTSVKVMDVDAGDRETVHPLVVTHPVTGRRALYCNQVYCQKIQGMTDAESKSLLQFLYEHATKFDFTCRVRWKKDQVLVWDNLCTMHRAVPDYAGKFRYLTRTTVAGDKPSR	5.83
MON-HT10: engineered oxygenase protein, amino acid sequence SEQ ID NO:43 (protein) MHAALTPLTNKYRFIDVQPLCGVLGAEITGVDLREPLDDSTWNEILDAFHTYQVIYFPGQAITNEQHIAFSRRFGPVDPVPLLKSIEGYPEVQMIRREANESGRILGDDWHTDSTFLDAPPAAVVMRAIEVPEYGGDTGFLSMYSAWDTLSDTMKATIEGLNVVHSATRVFGSLYQAQNWRFSNTSVKVMDVDAGDRETVHPLVVSHPVTGRRALYCNQVYCQRIEGMTDAESKCLLQFLYEHATKFDFTCRVRWKKDQVLVWDNLCTMHLAVPDYDGKFRYLTRTTVAGDKPSR	38.33
MON-HT4: engineered oxygenase protein, amino acid sequence SEQ ID NO:25 (protein) MHAALTPLTNKYRFIDVQPLTGVLGAEITGVDLREPLDDSTWNEILDAFHTYQVIYFPGQAITNEQHIAFSRRFGPVDPVPLLKSIEGYPEVQMIRREANESGRVIGDDWHTDSTFLDAPPAAVVMYAREVPPYGGDTGFLSMYTAWETLSPTMQATIEGLNVVHSATRVFGSLYQAQNRRYSNTSVKVMDVDAGDRETVHPLVVSHPVTGRRALYCNQVYCQRIEGMTDAESKSLLQFLYEHATKFDFTCRVRWKKDQVLVWDNLCTMHRAVPDYAGKFRYLTRTTVAGDKPSR	12.3

// below: % Injury from V8 2,4-D requested for another molecule
Lab note: MON-HT7: engineered oxygenase protein, amino acid sequence SEQ ID NO:34 (protein) MHAALTPLTNKYRFIDVQPLTGVLGAEITGVDLREPLDDSTWNEILDAFHTYQVIYFPGQAITNEQHIAFSRRFGPVDPVPLLKSIEGYPEVQMIRREANESGRVIGDDWHADSTFLDAPPAAVVMRAIEVPEYGGDTGFLSMYSAWETLSPTMQATIEGLNVVHSATKVFGSLYQATNWRFSNTSVKVMDVDAGDRETVHPLVVTHPVTGRRALYCNQVYCQKIQGMTDAESKSLLQFLYEHATKFDFTCRVRWKKDQVLVWDNLCTMHRSVPDYAGKFRYLTRTTVAGDKPSR gave % Injury from V8 2,4-D of 16.6
